Measured target: T1, ZTNF4 (Homo sapiens (Human), UniProt Q9Y275 134-285, limits assumed, radioiodinated with 125I (Iodobeads) in the binding assays; unlabeled ZTNF4 used to determine nonspecific binding)
T1 construct: also called BAFF
Assay notes: competitive binding: TACI-Fc against plate-coated TACI-N for 125I-ZTNF4
concentration giving complete inhibition for assorted binders

# Binder, concentration giving complete inhibition
records = [
    ("TACI (d1-29, d107-154)-Fc5 (Fc fusion) AMRSCPEEQYWDPLLGTCMSCKTICNHQSQRTCAAFCRSLSCRKEQGKFYDHLLRDCISCASICGQHPKQCAYFCENEPKSSDKTHTCPPCPAPEAEGAPSVFLFPPKPKDTLMISRTPEVTCVVVDVSHEDPEVKFNWYVDGVEVHNAKTKPREEQYNSTYRVVSVLTVLHQDWLNGKEYKCKVSNKALPSSIEKTISKAKGQPREPQVYTLPPSRDELTKNQVSLTCLVKGFYPSDIAVEWESNGQPENNYKTTPPVLDSDGSFFLYSKLTVDKSRWQQGNVFSCSVMHEALHNHYTQKSLSLSPGK", "~100 ng/mL"),
    ("TACI (d1-29)-Fc5 (Fc fusion, Made in CHO DG44 cells) AMRSCPEEQYWDPLLGTCMSCKTICNHQSQRTCAAFCRSLSCRKEQGKFYDHLLRDCISCASICGQHPKQCAYFCENKLRSPVNLPPELRRQRSGEVENNSDNSGRYQGLEHRGSEASPALPGLKEPKSSDKTHTCPPCPAPEAEGAPSVFLFPPKPKDTLMISRTPEVTCVVVDVSHEDPEVKFNWYVDGVEVHNAKTKPREEQYNSTYRVVSVLTVLHQDWLNGKEYKCKVSNKALPSSIEKTISKAKGQPREPQVYTLPPSRDELTKNQVSLTCLVKGFYPSDIAVEWESNGQPENNYKTTPPVLDSDGSFFLYSKLTVDKSRWQQGNVFSCSVMHEALHNHYTQKSLSLSPGK", "~100 ng/mL"),
]

// next entry
concentration giving complete inhibition reported for this binder TACI (d1-29, d111-154)-Fc5 (Fc fusion) AMRSCPEEQYWDPLLGTCMSCKTICNHQSQRTCAAFCRSLSCRKEQGKFYDHLLRDCISCASICGQHPKQCAYFCENKLRSEPKSSDKTHTCPPCPAPEAEGAPSVFLFPPKPKDTLMISRTPEVTCVVVDVSHEDPEVKFNWYVDGVEVHNAKTKPREEQYNSTYRVVSVLTVLHQDWLNGKEYKCKVSNKALPSSIEKTISKAKGQPREPQVYTLPPSRDELTKNQVSLTCLVKGFYPSDIAVEWESNGQPENNYKTTPPVLDSDGSFFLYSKLTVDKSRWQQGNVFSCSVMHEALHNHYTQKSLSLSPGK : ~100 ng/mL
